target.under.test: Cellular tumor antigen p53 (Homo sapiens) (UniProt P04637)
Sequence (P04637 whole entry, looked up): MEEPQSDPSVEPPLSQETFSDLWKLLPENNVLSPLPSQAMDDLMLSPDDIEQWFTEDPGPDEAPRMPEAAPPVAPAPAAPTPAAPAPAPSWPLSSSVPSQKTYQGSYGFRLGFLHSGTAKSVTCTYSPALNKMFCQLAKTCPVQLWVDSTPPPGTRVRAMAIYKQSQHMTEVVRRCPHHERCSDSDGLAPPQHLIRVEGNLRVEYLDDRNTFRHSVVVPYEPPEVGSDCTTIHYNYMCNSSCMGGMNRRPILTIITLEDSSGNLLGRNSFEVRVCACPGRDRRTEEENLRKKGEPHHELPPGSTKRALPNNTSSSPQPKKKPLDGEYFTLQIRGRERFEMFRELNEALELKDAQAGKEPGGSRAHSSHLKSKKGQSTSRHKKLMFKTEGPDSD
test.details: TOX21_p53_BLA_p4_ratio: Tox21 HCT-116 p53 Agonism Beta-lactamase Assay, Ratio, Phase 4 (AID 2283601)
Results filed as inconclusive are left out. The source made the active and inactive calls. The calls were made as follows: active = hit-call score of the fitted dose curve at least 0.9, where 1 is the maximum; inconclusive = response in the unintended direction; inactive = score below 0.9.
Classes used: true (1) = active, false (0) = inactive

# molecule, target.under.test, class.assignment
data = [
    ("CCCN(CCC)C(=O)C(CCC(=O)OCCCN1CCN(CCOC(=O)Cc2c(C)n(C(=O)c3ccc(Cl)cc3)c3ccc(OC)cc23)CC1)NC(=O)c1ccccc1 (stereo not given)", "Cellular tumor antigen p53 (Homo sapiens) (UniProt P04637)", "false (0)"),
    ("O=C(C(=O)c1ccccc1)c1ccccc1", "Cellular tumor antigen p53 (Homo sapiens) (UniProt P04637)", "false (0)"),
    ("OCCSc1ccccc1", "Cellular tumor antigen p53 (Homo sapiens) (UniProt P04637)", "false (0)"),
    ("CCCCCCCCC(CCCCCC)C(=O)O (stereo not given)", "Cellular tumor antigen p53 (Homo sapiens) (UniProt P04637)", "false (0)"),
    ("CCCCCCCCCCn1cc[n+](CCCCCCCCCC)c1C", "Cellular tumor antigen p53 (Homo sapiens) (UniProt P04637)", "true (1)"),
    ("CCC(c1ccccc1)c1noc(CCN(CC)CC)n1 (stereo not given)", "Cellular tumor antigen p53 (Homo sapiens) (UniProt P04637)", "false (0)"),
    ("O=C(O[C@H]1CN2CCC1CC2)N1CCc2ccccc2[C@@H]1c1ccccc1", "Cellular tumor antigen p53 (Homo sapiens) (UniProt P04637)", "false (0)"),
    ("Cn1cnc2c(F)c(Nc3ccc(Br)cc3Cl)c(C(=O)NOCCO)cc21", "Cellular tumor antigen p53 (Homo sapiens) (UniProt P04637)", "false (0)"),
    ("COCC1=C(C(=O)OC(C)OC(=O)OC(C)C)N2C(=O)[C@@H](NC(=O)/C(=N\\OC)c3csc(N)n3)[C@H]2SC1 (stereo not given in full)", "Cellular tumor antigen p53 (Homo sapiens) (UniProt P04637)", "false (0)"),
    ("C[C@@H](O)[C@H](N)C(=O)O", "Cellular tumor antigen p53 (Homo sapiens) (UniProt P04637)", "false (0)"),
    ("COc1ccc(OC)c(C(O)CNC(=O)CN)c1 (stereo not given)", "Cellular tumor antigen p53 (Homo sapiens) (UniProt P04637)", "false (0)"),
    ("Nc1[nH]c(=O)ncc1F", "Cellular tumor antigen p53 (Homo sapiens) (UniProt P04637)", "false (0)"),
    ("CC(C)(S)C(=O)N[C@@H](CS)C(=O)O", "Cellular tumor antigen p53 (Homo sapiens) (UniProt P04637)", "false (0)"),
    ("CN(C/C=C/C#CC(C)(C)C)Cc1cccc2ccccc12", "Cellular tumor antigen p53 (Homo sapiens) (UniProt P04637)", "false (0)"),
    ("CC(C)C[C@@H](NC(=O)[C@@H](O)[C@H](N)Cc1ccccc1)C(=O)O", "Cellular tumor antigen p53 (Homo sapiens) (UniProt P04637)", "false (0)"),
]

Provenance of the data: PubChem BioAssay (EPA / NIEHS)
